Task for the reader: assign each of the following compounds its reported pIC50.
biological target: mouse 11β-HSD1 (Mus musculus); construct: the full-length cDNAs of human or marine 11β-HSD1 and 11β-HSD2 were isolated from the cDNA libraries; microsomal fraction; experiment: Inhibition of mouse 11β-HSD1, scintillation proximity assay (SPA) with microsomes from transfected HEK-293 cells; settings: microsomes, NADPH, [3H]cortisone; n = 2
Sequence (P50172 whole entry): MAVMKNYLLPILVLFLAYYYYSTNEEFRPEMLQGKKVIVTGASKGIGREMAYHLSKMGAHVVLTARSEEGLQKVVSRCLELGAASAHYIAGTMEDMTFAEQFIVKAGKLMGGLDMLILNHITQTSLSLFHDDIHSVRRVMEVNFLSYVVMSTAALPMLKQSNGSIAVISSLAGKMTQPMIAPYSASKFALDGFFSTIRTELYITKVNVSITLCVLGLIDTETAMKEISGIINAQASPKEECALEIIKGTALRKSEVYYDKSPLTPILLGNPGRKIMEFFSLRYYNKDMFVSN
Entry type: numeric. Quantity: pIC50, the -log10 of concentration in molar units.

Entry CC(C)=CCCC(C)C1CCC2(C)C3=C(CCC12C)C1(C)CCC(O)C(C)(C)C1CC3=O (stereo not drawn) : reported pIC50 = ?
7.87

Look up pIC50: `CC(C)=CCC[C@@H](C)[C@@H]1CC[C@]2(C)C3=C(CC[C@@]12C)[C@@]1(C)CC[C@H](O)C(C)(C)[C@@H]1CC3`
7.09

I am curious: what pIC50 value has been reported for C[C@H](C/C=C/C(C)(C)O)[C@@H]1CC[C@]2(C)C3=C(CC[C@@]12C)[C@@]1(C)CC[C@H](O)C(C)(C)C1CC3 (stereo partly drawn) [Compound 6, (20R,23E)-Eupha-8,23-diene-3β,25-diol] ?
6.53

# input compound: C=C(C)[C@@H](O)CC[C@@H](C)[C@@H]1CC[C@]2(C)C3=C(CC[C@@]12C)[C@@]1(C)CC[C@H](O)C(C)(C)C1CC3 (stereo partly drawn) [Compound 5, (24R)-Eupha-8,25-diene-3β,24-diol] ; wanted: its pIC50
7.31

Value lookup for pIC50; key = C=C(CC[C@](C)(O)[C@@H]1CC[C@]2(C)C3CCC4C(C)(C)[C@@H](O)CC[C@]4(C)C3CC[C@@]12C)C(C)C (stereo partly drawn) [Compound 1, Euphane-3β,20-dihydroxy-24-ene]
7.11

Fill in: pIC50 of CC(C)=CCC[C@@H](C)[C@@H]1CC[C@]2(C)C(=O)[C@]3(CC[C@@]12C)[C@@H](O)CC1C(C)(C)[C@@H](O)CC[C@@]13C (stereo partly drawn) is ___
5.97

----------
Target: mouse 11β-HSD2 (Mus musculus)
Construct: the full-length cDNAs of human or marine 11β-HSD1 and 11β-HSD2 were isolated from the cDNA libraries; microsomal fraction
Sequence (P51661 1-386): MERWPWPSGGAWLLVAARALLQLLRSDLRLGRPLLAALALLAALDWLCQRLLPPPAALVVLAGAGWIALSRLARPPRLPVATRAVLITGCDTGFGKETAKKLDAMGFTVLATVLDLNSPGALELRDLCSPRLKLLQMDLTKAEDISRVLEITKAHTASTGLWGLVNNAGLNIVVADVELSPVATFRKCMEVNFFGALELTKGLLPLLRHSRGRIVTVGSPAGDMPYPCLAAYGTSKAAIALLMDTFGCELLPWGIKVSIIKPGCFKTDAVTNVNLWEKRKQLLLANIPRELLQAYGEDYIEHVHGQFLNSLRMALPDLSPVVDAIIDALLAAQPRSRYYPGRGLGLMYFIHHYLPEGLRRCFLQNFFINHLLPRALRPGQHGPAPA
Assay: Inhibition of mouse 11β-HSD2, SPA with microsomes from transfected HEK-293 cells
Conditions: [3H]cortisol, NAD+, n = 2
Protocol: Glucocorticoid hormones play important roles in many biological and physiological processes, including regulation of energy metabolism; inflammatory, immune and stress responses; and cardiovascular homeostasis. […] IC50 (X ° S.D., n = 2) values were calculated by using Prism Version 4 (GraphPad Software, San Diego, CA, USA.). […]
pIC50: −log10 of the molar value.
ENDPOINT_LABEL: pIC50

Query the reported pIC50 for mouse 11β-HSD2 (Mus musculus); item: CC(C)=CCC[C@@H](C)[C@@H]1CC[C@]2(C)C(=O)[C@]3(CC[C@@]12C)[C@@H](O)CC1C(C)(C)[C@@H](O)CC[C@@]13C (stereo partly drawn)
< 3.00

Any idea what pIC50 came out for CC(C)=CCCC(C)C1CCC2(C)C3=C(CCC12C)C1(C)CCC(O)C(C)(C)C1CC3=O (stereo not drawn) on mouse 11β-HSD2 (Mus musculus)?
< 3.00

Give mouse 11β-HSD2 (Mus musculus) pIC50 for C[C@H](C/C=C/C(C)(C)O)[C@@H]1CC[C@]2(C)C3=C(CC[C@@]12C)[C@@]1(C)CC[C@H](O)C(C)(C)C1CC3 (stereo partly drawn) [Compound 6, (20R,23E)-Eupha-8,23-diene-3β,25-diol]
< 3.00

Values compiled from paper PMC6268726.
